tested on: NCI/ADR-RES; test: NCI tumour cell line growth inhibition, 48 h
The source made the active and inactive calls. No stated cut-off is given here; in the data, active = GI50 up to about 1.1 µM and inactive = higher.
Classes used: y for active, n for inactive

Compound | Group Label
O=C1/C(=C/c2ccccc2O)N=C(c2ccccc2)N1c1nc2ccccc2s1 | n
Cc1ccccc1NC(=O)Cc1csc2[n+]1C(=O)/C(=C/c1ccc([N+](=O)[O-])cc1)S2 | n
COc1cc(OCCN(C)C)c2[nH]c(C(=O)N3CC(CCl)c4c3cc(N)c3ccccc43)cc2c1 (centres undefined) | y
Cc1ccc(C2=Nc3c(N)nc(N)nc3NC(c3ccccc3)C2)cc1 (centres undefined) | n
Cc1ccc(-c2c(C#N)c(-c3ccc([N+](=O)[O-])cc3)c(C#N)c(=O)n2NS(=O)(=O)c2ccccc2)cc1 | n
COc1ccc(/C(Cl)=C(\CNc2ccccn2)c2ccccc2)cc1OC | n
CC(=O)OCCn1c(Cc2ccc([N+](=O)[O-])cc2)nn(C(C)=O)c1=O | n
O=C1CCCCCCCCCCC1CN1CCCC1 (centres undefined) | n
Cc1cccc2c(N)c3cccc(C(=O)NCC[N+](C)(C)Cc4sccc4[N+](=O)[O-])c3nc12 | n
Cn1cco/c1=N/c1ccc(Cl)c(Cl)c1 | n
CN(C)c1ccc(/N=C2/NC(=N\c3ccccc3)/C(=N/c3ccccc3)S2)cc1 | n
N=C1OC(CN2CCN(c3ccccc3)CC2)CN1C(=S)Nc1ccccc1 (centres undefined) | n
C=C1C(=O)C23CC1C[C@H](OC(C)=O)[C@H]2C1(C)C(OC(C)=O)C[C@H](O)C(C)(C)[C@H]1C(=O)[C@@H]3OC(C)=O (some centres undefined) | n
CSc1ccc(/C=C2\N=C(c3ccccc3)N(/N=C/c3cc4cc(C)ccc4nc3Cl)C2=O)cc1 | n

----------
tested on: DU-145; test: NCI tumour cell line growth inhibition, 48 h
The source made the active and inactive calls. Cut-off read from the data, not from the text of the source: active = GI50 up to about 1.1 µM and inactive = higher.
Reported GI50 values for a set of compounds
Measurement Name: GI50

Compound | Result
CC1(C)CC(=O)C2=C(C1)N(c1ccccc1)C1(O)C=CC(O)=C3C(=O)c4ccccc4C(=O)C321 (centres undefined) | 74 µM (inactive)
CN(NC(=O)/C(=C/c1ccc(O)cc1)NC(=O)c1ccccc1)c1ccnc2cc(Cl)ccc12 | 21.9 µM (inactive)
c1ccc2c(Cc3nnc4sc(SSc5nn6c(Cc7c[nH]c8ccccc78)nnc6s5)nn34)c[nH]c2c1 | 26.3 µM (inactive)
Cc1cc(S(=O)(=O)N/C(=N/N)NCCc2ccccc2)c(S)cc1Cl | 18.5 µM (inactive)

----------
system: M19-MEL; assay: NCI tumour cell line growth inhibition, 48 h
The source made the active and inactive calls. No stated cut-off is given here; in the data, active = GI50 up to about 1.1 µM and inactive = higher.
Outcomes: 1 = active, 0 = inactive

Compound | Measured Target | Group Label
CCOC(=O)/C(=C/c1ccc(C#N)cc1)N(CC)CC | M19-MEL | 0
Cc1ccc(NC(=O)CCC(=O)C2Cc3ccccc3C2=O)cc1C (configuration not stated) | M19-MEL | 0
O=C1OC(=O)c2c1c(-c1ccccc1)nc1ccccc21 | M19-MEL | 0
Cc1ccc(SSCCCS(=O)O)cc1 | M19-MEL | 0
C#Cc1c(C)c(/C=C/C(C)=C\C(=O)OC)n(C)c1C | M19-MEL | 0
N#C/C(=C\c1ccc(O)cc1O)C(N)=O | M19-MEL | 0
Cc1cc(S(=O)(=O)O)c(NC(=O)C(=O)Cc2cc(=O)oc3cc(O)ccc23)cc1Cl | M19-MEL | 0
CCSC(=O)C1(C)OC2CCCCC2C1=O (configuration not stated) | M19-MEL | 0
CCCCCCCCNC(=O)SCCCC | M19-MEL | 0
Nc1nc(N)c2c(Cl)c(CNc3ccc(Cl)c(Cl)c3)ccc2n1 | M19-MEL | 1
O=C(Nc1cccc2c1C(=O)c1c(NC(=O)c3ccccc3)ccc(Nc3cccc4c3C(=O)c3ccccc3C4=O)c1C2=O)c1ccccc1 | M19-MEL | 0
CCOP(=O)(C/C(=N/NC(C)(C)C)C(=O)Nc1nc2ccc(C)cc2s1)OCC | M19-MEL | 0

----------
system: EKVX; test: NCI tumour cell line growth inhibition, 48 h
The source made the active and inactive calls. No stated cut-off is given here; in the data, active = GI50 up to about 1.1 µM and inactive = higher.
Outcome codes: Yes (active), No (inactive)

Molecule | Group Label
O=C(O)CCCCCO | No
CCc1cc2c(cc1O)CC[C@@H]1[C@@H]2CC[C@]2(C)[C@@H](O)CC[C@@H]12 | No
CC(C)=CCN1c2ccccc2[C@@]2(CC=C(C)C)CCN(C)[C@@H]12 [(+)-DEBROMOFLUSTRAMINE B] | No
O=C(NO)C(=O)Nc1cc(Cl)ccc1Cl | No
Nc1ccc2[nH]c3c(-c4ccccc4)nccc3c2c1 | No
CC1(C)S[C@@H]2[C@H](NC(=O)[C@H](N)c3ccccc3)C(=O)N2[C@H]1C(=O)O [AMPICILLIN] | No
Cc1cccc2c(N)c3cccc(C(=O)NCC[N+](C)(C)Cc4sccc4[N+](=O)[O-])c3nc12 | No
N=c1c2sc3nc4ccccc4n3c2ncn1Cc1ccccc1 | No
CC1C(O)C2(Oc3cc4c(c5c3[C@@H](CC5O)[C@H]2C)CCC2Cc3nc5c(nc3C[C@@]42C)CC2CCC3C4=C[C@H]6O[C@@]7(O[C@@](C)(CO)C[C@@H]7O)C(C)[C@@]6(O)[C@]4(C)[C@@H](O)CC3[C@]2(C)C5)OC1(C)C (some centres undefined) | Yes
Nc1ncn([C@@H]2C=C(CO)C(O)C2O)c(=O)n1 (some centres undefined) | No
COc1ccc(-n2cnn3c(=O)c4cn[nH]c4nc23)cc1 | No
COC(=O)c1cc(C)n(CN(Cn2nc(C(=O)OC)cc2C)c2ccccc2)n1 | No
CC[S+]([O-])C(=O)N(O)c1ccc(Cl)cc1 (centres undefined) | No
COC(=O)/C(C#N)=C(/NCc1ccccc1)Nc1ccccc1 | No
O=C1C(c2c(O)[nH]c3ccc(F)cc23)=Nc2ccccc21 | No
O=C(O)C1CCCCC1c1c2ccc(=O)cc-2oc2cc(O)ccc12 (centres undefined) | No
C=C1C(=O)OC2C1C(OC(=O)/C(C)=C\C)CC1(CO1)C1C(O)C=C(C)C21O (centres undefined) | No
CCN(CC)c1ccc2c(c1)Oc1ccc(N(C(C)=O)c3ccccc3)cc1C21OC(=O)c2ccccc21 (centres undefined) | No
CCC1CN2CCc3cc(OC)c(OC)cc3C2CC1CC1c2cc(OC)c(OC)cc2CCN1C(=O)CNC(=O)OC(C)(C)C (centres undefined) | No
CCNC(=O)NNc1ncnc2c1c(-c1ccc(Cl)cc1)cn2-c1ccc(C)cc1 | No
Cc1nc2c(c(N3CCN(C)CC3)n1)Cc1ccccc1-2 | No
N#C/C(=N/Nc1[nH]cnc1C(N)=O)C(=O)Nc1ccccc1 | No
COc1cccc(-c2cc(O)c3c(C)cc(C)nc3n2)c1 | No
C/C(CC(=O)Nc1ccc([N+](=O)[O-])cc1)=N/N=C(N)N | No
C[C@@H]1O[C@@H](O[C@H]2CC[C@]3(C=O)[C@H]4CC[C@]5(C)[C@@H](c6ccc(=O)oc6)CC[C@]5(O)[C@@H]4CC[C@]3(O)C2)[C@H](O)[C@H](O)[C@H]1O[C@@H]1O[C@H](CO)[C@@H](O)[C@H](O)[C@H]1O [HELLEBRIN] | Yes
CCCCCC1CC(C(C)=O)CN1c1ccc(F)cc1 (centres undefined) | No
O=[PH]1c2ccccc2Nc2ccccc21 | No
CCOC(=O)CCCO | No
COc1ccc2c(c1)OCC1Cc3ccccc3OC21 (centres undefined) | No

----------
test system: OVCAR-3; test: NCI tumour cell line growth inhibition, 48 h
The source made the active and inactive calls. Cut-off read from the data, not from the text of the source: active = GI50 up to about 1.1 µM and inactive = higher.
Outcomes: active, inactive

Compound | Group Label
COC(=O)c1c(C)ccc2c(O)c3c(cc12)C(=O)c1c2c(cc(O)c1C3=O)C1(C)OC(C)(O2)C(O)C(N(C)C)C1O (stereo not drawn) | inactive
CCOC(=O)c1cc(C2CCN(CC(C)CC)C2=S)c(-c2cc(C)no2)[nH]1 (stereo not drawn) | inactive
COC(=O)CCSC1=CC(=O)c2nc3ccccc3c3ccnc1c23 | inactive
Cc1ccc(C2=Nc3c(N)nc(N)nc3NC(c3ccccc3)C2)cc1 (stereo not drawn) | inactive
C/C(CC(=O)Nc1ccc([N+](=O)[O-])cc1)=N/N=C(N)N | inactive
COC(=O)CC1(CNC(=O)OCc2ccccc2)OCCO1 | inactive
O=C1CCCCCCCCCCC1CN1CCCC1 (stereo not drawn) | inactive
Clc1ccc(C2SCc3nc4ccccc4n32)cc1Cl (stereo not drawn) | inactive
O=C(c1ccccc1)n1cc(/C=C/[N+](=O)[O-])c2ccccc21 | inactive
ClCCN(CCCl)c1ccc(/C=N/Nc2ccnc3ccccc23)cc1 | inactive
C/C(=N\N=C1/C(=O)OC(c2ccccc2)=C1C(=O)c1ccccc1)c1ccc([N+](=O)[O-])cc1 | inactive
CC(CN1NC12CCCC2)N1NC12CCCC2 (stereo not drawn) | inactive
CCOC(=O)/C(=N/Nc1ccc(Cl)cc1)N1C(=S)N(C)N=C(C)C=C1S | inactive
Cc1cc(S(=O)(=O)N/C(=N/N)NCCc2ccccc2)c(S)cc1Cl | inactive
CC1C[C@]2(C[C@@H](C)C(=O)O2)O[C@@H]2CC3(C)[C@@H]4CCC5C(C)(C)OC(=O)C[C@H]6OO[C@]4(CC[C@]3(C)C12)CC56O (stereo partly drawn) | inactive
COc1ccc(C2CC(c3c(O)ccc4ccccc34)=NN2C(C)=O)cc1OC (stereo not drawn) | inactive
Cc1cc(C(C)C)cc(=O)c(O)c1 | inactive
CC1(C)CC[C@]2(C)CC=C3[C@]4(C)CC[C@H]5C(C)(C)C(=O)CC[C@]5(C)[C@H]4CC[C@@]3(C)[C@H]2C1 | inactive
Cc1ccc(NC(=O)CCC(=O)C2Cc3ccccc3C2=O)cc1C (stereo not drawn) | inactive
C[N+](C)(Cc1ccc(NC(=O)CCCC(=O)ON2C(=O)CCC2=O)cc1)c1ccccc1 | active
O=C(N/N=C/c1ccc(Cl)cc1)c1c(Cl)c(Cl)c(Cl)c(Cl)c1-c1nc2ccccc2[nH]1 | inactive
Nc1nc2cc(CNc3ccc(C(=O)O)cc3)ccc2nc1-c1ccccc1 | inactive
CCCCN1C(=O)C[C@H]2[C@@H]3CCc4cc(OCCN5CCCC5)ccc4[C@H]3CC[C@]2(C)C1=O | inactive
CC1CC/C(=C\c2ccc(F)cc2)C2=C1C(c1ccc(F)cc1)N1C(=O)CSC1=N2 (stereo not drawn) | inactive
C=C1C(=O)OC2CC(C)C(C(O)CC(C)O)=CCC12 (stereo not drawn) | inactive
O=C(Nc1ccc2ccccc2c1)c1cc2cc(CCl)ccc2oc1=O | inactive
CC1=CCP(C(F)(F)F)P(C(F)(F)F)C1 (stereo not drawn) | inactive
Clc1ccc(NCc2nnc(COc3ccc(OCc4nnc(CNc5ccc(Cl)cc5)o4)c(Cl)c3)o2)cc1 | inactive
Nc1c([N+](=O)[O-])nc(Cl)c2nncn12 | inactive
C[C@@H]1O[C@@H](O[C@H]2CC[C@]3(C=O)[C@H]4CC[C@]5(C)[C@@H](c6ccc(=O)oc6)CC[C@]5(O)[C@@H]4CC[C@]3(O)C2)[C@H](O)[C@H](O)[C@H]1O[C@@H]1O[C@H](CO)[C@@H](O)[C@H](O)[C@H]1O | active
CCOC(=O)c1c(C)noc1/N=N/N(CCO)CCO | inactive
N#C/C(=C\c1ccc(O)cc1O)C(N)=O | inactive
COC1=CC(=O)c2ccccc2C1(C)C1=NC(C)(C)CO1 (stereo not drawn) | inactive

src = ChEMBL document CHEMBL1201862
